TEST DETAILS: physchem
TEST SETTINGS: 0.15 M sodium salt
METRIC NAME: solubility (mM)
Please reply with the bare figure in mM and do not write the unit itself.

Request: Quick check: solubility of `C[C@H](CCC(=O)O)[C@H]1CC[C@H]2[C@@H]3[C@H](O)C[C@@H]4C[C@H](O)CC[C@]4(C)[C@H]3C[C@H](O)[C@]12C` ?
Result: 12
